Test: yeast display, Sf9 membrane polyspecificity reagent, FACS + sequencing; frameworks hold sequencing errors
observable: polyreactivity (PSR sort gate)

Examples with answers:
[
  {
    "macromoleculeSequence": "QVQLVESGGGLVQAGVSLRLSCAASGNTFRINTKLCYRQAPGKERDLVATITRRGGSTYYADSVKGRFTISRDNAMNTVYLQMNSLNPEDSAVYYCAARVRGTGVYGGYNYWGQGTQVTVSS",
    "polyreactivity (PSR sort gate)": "high polyreactivity"
  },
  {
    "macromoleculeSequence": "QVQLVESGGGLVQAGGSLRLSCAASGRTFWRYAMGWYIQAPGKERELVAAISSSGITYYADSVKGRFTISRDNAKNTVYLQMNSLKPEDTAVYYCAVRWGRGFWGQGTQVTVSS",
    "polyreactivity (PSR sort gate)": "high polyreactivity"
  },
  {
    "macromoleculeSequence": "QVHLVESGGGLVQAGGSLRLSCAASGNIFYPNAMGWYRQAPGKERELVAAISSSGGSTYYADSVKGRFTISRDNAKNTVYLQMNSLKPEDTAVYYCNAYRQYRYDYWGQGTQVTVSS",
    "polyreactivity (PSR sort gate)": "low polyreactivity"
  },
  {
    "macromoleculeSequence": "QVQLVESGGGLVQAGGSLRLSCAASGRTFWNAMGWYRQAPGKERELVATITSGGITNYADSVKGRFTISRDNAKNTVYLQMNSLKPEDTAVYYCAARPYSWRNYRPSDYWGQGTQVTVSS",
    "polyreactivity (PSR sort gate)": "high polyreactivity"
  },
  {
    "macromoleculeSequence": "QVQLGESGGGLVQAGGSLRLSCAASGITFPGYAMGWYRQAPGKERELVARISRSGGSTYYADSVKGRFTISRDNAKNTVYFQMNSLKPEDTAVYYCAAGAYRSGGYSFDDWGQGTQVTVSS",
    "polyreactivity (PSR sort gate)": "low polyreactivity"
  }
]

# polyreactivity (PSR sort gate) of QDQLVESRGGIVQAVRSLRLSCAASGSIFIDNAMGWYRQAPGKESEFVAAISKSATSTYYADSVKGRFTISRDNAYNTVYLEMKSLIPEDTAVYYCAVRRPRPYSNYYYWGQGTQVNVSS = high polyreactivity

# polyreactivity (PSR sort gate) of QVQLEESGGGLVQAGGSLRLSCAASGRIFVSNDMGWYRQAPGKERELVAAITWSDDSTHYADSVKGRFTISRDYAKNTVYLQRNSVKPEDTAVYYCNKQRYYSTWRYDYWGQGTQVTVSS = low polyreactivity
